MEASURED TARGET: PI3K delta (Homo sapiens (Human))
Sequence (O00329 other isoform, or with tags, fused parts or gaps linker GGGGGG): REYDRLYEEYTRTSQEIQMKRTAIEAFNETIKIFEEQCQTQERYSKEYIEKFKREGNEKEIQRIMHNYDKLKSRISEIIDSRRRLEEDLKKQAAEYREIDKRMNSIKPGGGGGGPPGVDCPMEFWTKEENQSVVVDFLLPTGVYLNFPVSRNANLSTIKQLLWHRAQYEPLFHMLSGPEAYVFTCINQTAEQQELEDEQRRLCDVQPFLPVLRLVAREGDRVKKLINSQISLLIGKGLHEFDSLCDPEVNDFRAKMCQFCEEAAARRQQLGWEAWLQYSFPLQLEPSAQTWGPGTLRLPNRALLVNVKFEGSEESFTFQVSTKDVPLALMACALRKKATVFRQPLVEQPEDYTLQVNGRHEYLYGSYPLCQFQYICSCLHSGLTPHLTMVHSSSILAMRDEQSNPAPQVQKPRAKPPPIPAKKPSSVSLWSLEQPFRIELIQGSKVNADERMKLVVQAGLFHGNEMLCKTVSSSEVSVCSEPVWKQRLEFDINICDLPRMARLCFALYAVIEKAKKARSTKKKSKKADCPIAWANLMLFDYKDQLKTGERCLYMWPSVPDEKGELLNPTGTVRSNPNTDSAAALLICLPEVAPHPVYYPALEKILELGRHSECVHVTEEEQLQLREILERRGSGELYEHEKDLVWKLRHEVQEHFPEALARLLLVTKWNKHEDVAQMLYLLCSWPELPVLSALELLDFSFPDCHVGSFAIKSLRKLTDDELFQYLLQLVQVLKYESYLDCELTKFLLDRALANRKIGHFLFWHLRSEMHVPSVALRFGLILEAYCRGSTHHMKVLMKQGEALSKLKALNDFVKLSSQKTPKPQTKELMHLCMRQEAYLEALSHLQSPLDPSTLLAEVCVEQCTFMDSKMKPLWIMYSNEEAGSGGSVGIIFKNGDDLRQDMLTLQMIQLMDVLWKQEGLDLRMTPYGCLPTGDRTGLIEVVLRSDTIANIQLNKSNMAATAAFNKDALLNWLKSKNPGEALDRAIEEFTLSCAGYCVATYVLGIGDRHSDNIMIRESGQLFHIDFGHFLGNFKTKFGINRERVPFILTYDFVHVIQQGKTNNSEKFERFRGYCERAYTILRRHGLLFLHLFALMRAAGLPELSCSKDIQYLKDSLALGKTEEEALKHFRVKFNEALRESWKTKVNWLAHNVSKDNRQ
RUN DESCRIPTION: Enzymatic PI3K delta isoform inhibition (lipid kinase activity, Kinase-Glo luminescence)
PARTICULARS: Enzymatic assay
pIC50: −log10 of the molar value.
MEASURED QUANTITY: pIC50

Worked cases, pIC50 given:
# COMPOUND, MEASURED TARGET, pIC50
rows = [
    ("COc1ccc(N2CCOc3ccc(O[C@H]4CCN(C(=O)CN5CCOCC5)C4)cc32)cn1 [Example D2]", "PI3K delta (Homo sapiens (Human))", 6.83),
    ("COc1cc(N2CCOc3ccc(O[C@H]4CCN(C(=O)C5CCS(=O)(=O)C5)C4)cc32)cnc1OC (single isomer, unassigned) [Example H9]", "PI3K delta (Homo sapiens (Human))", 7.96),
    ("CCC(=O)N1CC[C@H](Oc2ccc3c(c2)N(c2cncc(C#N)c2)CCO3)C1 [Example A32]", "PI3K delta (Homo sapiens (Human))", 7.13),
    ("COc1ncc(N2CCOc3ccc(O[C@H]4CCN(C(=O)c5oc(C)nc5C)C4)cc32)cc1C#N [Example C20]", "PI3K delta (Homo sapiens (Human))", 8.22),
    ("COc1cc(N2CCOc3ccc(O[C@H]4CCN(C(=O)CCO)C4)cc32)cnc1Cl [Example B57]", "PI3K delta (Homo sapiens (Human))", 7.02),
]

I. COc1ncc(N2CCOc3ccc(O[C@H]4CCN(C(=O)CCS(C)(=O)=O)C4)cc32)cc1Cl [Example B106]
II. CCC(=O)N1CC[C@H](Oc2ccc3c(c2)N(c2cnc(OC)c(C)c2)CCO3)C1 [Example A13]
III. CCC(=O)N1CC[C@H](Oc2ccc3c(c2)N(c2ccc(C)c(C#N)c2)CCO3)C1 [Example A40]
Q: Highest pIC50 first, then in falling order down to the smallest. Respond with an ordered listing of the labels, as requested.
Ans: II, I, III
(II: 8.30, I: 7.77, III: 6.34)

I. COc1ncc(N2CCOc3ccc(O[C@H]4CCN(C(=O)C5CCS(=O)(=O)CC5)C4)cc32)cc1F [Example B11]
II. COc1cc(N2CCOc3ccc(O[C@H]4CCN(C(=O)c5cn(C)cn5)C4)cc32)cnc1OC [Example B48]
III. Nc1ncc(N2CCOc3ccc(O[C@H]4CCN(C(=O)C5CCOCC5)C4)cc32)cc1C(F)(F)F [Example A23]
IV. COc1cc(N2CCOc3ccc(O[C@H]4CCN(C(=O)C5CCS(=O)(=O)CC5)C4)cc32)cnc1Cl [Example B56]
Q: Highest pIC50 first, then in falling order down to the smallest. Respond with an ordered listing of the labels, as requested.
Ans: II, I, IV, III

a. COc1ncc(N2CCOc3ccc(O[C@H]4CCN(C(=O)C5CCOCC5)C4)cc32)cc1F [Example B18]
b. COc1ncc(N2CCOc3ccc(O[C@H]4CCN(C(=O)c5nnc(C)o5)C4)cc32)cc1C#N [Example C12]
c. COc1ncc(N2CCOc3ccc(O[C@H]4CCN(C(=O)c5cnn(C)c5)C4)cc32)cc1C#N [Example D27]
d. COc1ncc(N2CCOc3ccc(O[C@H]4CCN(C(=O)C5CCS(=O)(=O)C5)C4)cc32)cc1Cl (single isomer, unassigned) [Example H14]
e. COc1ncc(N2CCOc3cnc(O[C@H]4CCN(C(=O)c5cn(C)cn5)C4)cc32)cc1C(F)(F)F [Example E7]
Q: Could you please order the items by pIC50, going from the lowest number to the highest? Respond with an ordered listing of the labels, as requested.
Ans: b, c, e, a, d

a. COc1ncc(N2CCOc3ccc(O[C@H]4CCN(C(=O)[C@H]5CC[C@H](O)CC5)C4)cc32)cc1F [Example B117]
b. COc1ncc(N2CCOc3ccc(O[C@H]4CCN(C(=O)c5cocn5)C4)cc32)cc1F [Example B100]
c. CS(=O)(=O)c1ncc(N2CCOc3ccc(O[C@H]4CCN(C(=O)[C@H]5CCOC5)C4)cc32)cc1C(F)F [Example B76]
d. COc1ncc(N2CCOc3ccc(O[C@H]4CCN(C(=O)C5CCS(=O)(=O)CC5)C4)cc32)cc1C [Example B93]
Q: Highest pIC50 first, then in falling order down to the smallest. Respond with an ordered listing of the labels, as requested.
Ans: d, a, b, c
(d: 8.40, a: 8.10, b: 7.85, c: 7.21)

###

MEASURED TARGET: PI3K delta (Homo sapiens (Human))
RUN DESCRIPTION: Enzymatic PI3K delta isoform inhibition (lipid kinase activity, Kinase-Glo luminescence)
Assay type: biochemical
PARTICULARS: Enzymatic assay
MEASURED QUANTITY: IC50 (nM)

Worked cases, IC50 given:
# MOLECULE, IC50, nM
data = [
    ("CS(=O)(=O)c1ncc(N2CCOc3ccc(O[C@H]4CCN(C(=O)C5CCOCC5)C4)cc32)cc1C(F)F", 3),
    ("COc1cc(N2CCOc3ccc(O[C@H]4CCN(C(=O)C5CCOCC5)C4)cc32)ccn1", 21),
    ("COc1ncc(N2c3cc(O[C@H]4CCN(C(=O)C5CCOCC5)C4)ccc3OCC2C)cc1C#N (stereo partly drawn) [Example C5]", 95),
    ("CCC(=O)N1CC[C@H](Oc2ccc3c(c2)N(c2ccc(OC)c(S(=O)(=O)N(C)OC)c2)CCO3)C1", 42),
    ("COCC(=O)N1CC[C@H](Oc2ccc3c(c2)N(c2cnc(OC)c(F)c2)CCO3)C1", 57),
    ("COc1ncc(N2CCOc3cnc(O[C@H]4CCN(C(=O)c5cn(C)cn5)C4)cc32)cc1C [Example E1]", 4),
]

P. COc1ncc(N2CCOc3ccc(O[C@H]4CCN(C(=O)c5cn[nH]c5)C4)cc32)cc1C#N
Q. COCCC(=O)N1CC[C@H](Oc2ccc3c(c2)N(c2cnc(OC)c(F)c2)CCO3)C1
Q: Which shows the larger IC50 value: P or Q ? Bench note: the answer is the label of the chosen record.
Ans: Q

1. COCCC(=O)N1CC[C@H](Oc2ccc3c(c2)N(c2cnc(OC)c(OC)c2)CCO3)C1
2. Cc1cc(N2CCOc3ccc(O[C@H]4CCN(C(=O)C5CCCOC5)C4)cc32)cnc1S(C)(=O)=O (stereo partly drawn)
3. CC[S+]([O-])c1ccc(N2CCOc3ccc(O[C@H]4CCN(C(=O)C5CCOCC5)C4)cc32)cn1 (stereo partly drawn)
Q: Could you please order the items by IC50, going from the lowest number to the highest? Respond with an ordered listing of the labels, as requested.
Ans: 2, 3, 1

###

MEASURED TARGET: PI3K alpha (Homo sapiens (Human), UniProt P42336)
Sequence (P42336 other isoform, or with tags, fused parts or gaps): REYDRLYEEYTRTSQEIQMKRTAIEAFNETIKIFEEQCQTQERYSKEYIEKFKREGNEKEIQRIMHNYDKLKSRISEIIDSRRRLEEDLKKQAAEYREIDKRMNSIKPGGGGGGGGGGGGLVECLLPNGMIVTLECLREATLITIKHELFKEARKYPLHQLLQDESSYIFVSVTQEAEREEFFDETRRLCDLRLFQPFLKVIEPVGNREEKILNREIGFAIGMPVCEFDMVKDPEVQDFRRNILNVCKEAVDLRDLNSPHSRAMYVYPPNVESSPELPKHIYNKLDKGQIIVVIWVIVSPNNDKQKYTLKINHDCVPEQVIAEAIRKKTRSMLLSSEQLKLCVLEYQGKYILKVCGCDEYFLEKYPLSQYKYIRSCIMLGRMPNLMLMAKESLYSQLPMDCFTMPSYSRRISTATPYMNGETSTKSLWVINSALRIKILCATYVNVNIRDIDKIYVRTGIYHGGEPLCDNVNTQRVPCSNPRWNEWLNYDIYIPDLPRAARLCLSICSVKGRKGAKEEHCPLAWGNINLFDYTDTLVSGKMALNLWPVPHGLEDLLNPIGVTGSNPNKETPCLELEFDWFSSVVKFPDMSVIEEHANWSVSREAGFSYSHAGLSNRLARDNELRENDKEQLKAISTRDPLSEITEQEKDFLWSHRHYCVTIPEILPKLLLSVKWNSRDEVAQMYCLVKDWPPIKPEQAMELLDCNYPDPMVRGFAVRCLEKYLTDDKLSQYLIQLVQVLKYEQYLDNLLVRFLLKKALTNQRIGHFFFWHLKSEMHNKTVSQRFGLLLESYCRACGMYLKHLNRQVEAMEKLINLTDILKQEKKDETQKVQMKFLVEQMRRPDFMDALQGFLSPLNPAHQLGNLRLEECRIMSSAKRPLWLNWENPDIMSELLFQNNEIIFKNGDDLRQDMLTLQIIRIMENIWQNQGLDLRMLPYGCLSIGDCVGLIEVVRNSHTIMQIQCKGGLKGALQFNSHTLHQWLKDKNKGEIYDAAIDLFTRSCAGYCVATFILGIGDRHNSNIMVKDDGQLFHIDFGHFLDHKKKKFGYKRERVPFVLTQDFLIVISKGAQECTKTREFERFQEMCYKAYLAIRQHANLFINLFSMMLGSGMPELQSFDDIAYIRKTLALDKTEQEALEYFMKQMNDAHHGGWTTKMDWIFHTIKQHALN
RUN DESCRIPTION: Enzymatic PI3K alpha isoform inhibition (lipid kinase activity, Kinase-Glo luminescence)
PARTICULARS: Enzymatic assay
pIC50: −log10 of the molar value.
MEASURED QUANTITY: pIC50

# COMPOUND, MEASURED TARGET, MEASURED QUANTITY, TEST VALUE
data = [
    ("CCC(=O)N1CC[C@H](Oc2ccc3c(c2)N(c2ccc(OC)c(OC)c2)CCO3)C1", "PI3K alpha (Homo sapiens (Human), UniProt P42336)", "pIC50", 5.25),
    ("COc1ncc(N2CCOc3cnc(O[C@H]4CCN(C(=O)c5cn(C)cn5)C4)cc32)cc1C(F)(F)F", "PI3K alpha (Homo sapiens (Human), UniProt P42336)", "pIC50", 6.88),
    ("COc1ncc(N2CCOc3ccc(O[C@H]4CCN(C(=O)C5CCOC5)C4)cc32)cc1C (stereo partly shown) [Example B15]", "PI3K alpha (Homo sapiens (Human), UniProt P42336)", "pIC50", 5.58),
    ("Cc1cc(N2CCOc3ccc(O[C@H]4CCN(C(=O)C5CCOCC5)C4)cc32)cnc1OC(F)F", "PI3K alpha (Homo sapiens (Human), UniProt P42336)", "pIC50", 5.69),
    ("COc1cc(N2CCOc3ccc(O[C@H]4CCN(C(=O)C5CCOCC5)C4)cc32)cnc1S(C)(=O)=O", "PI3K alpha (Homo sapiens (Human), UniProt P42336)", "pIC50", 5.75),
    ("COc1ncc(N2CCOc3ccc(O[C@H]4CCN(C(=O)C5CCNCC5)C4)cc32)cc1C#N", "PI3K alpha (Homo sapiens (Human), UniProt P42336)", "pIC50", 6.29),
]

1. CCC(=O)N1CC[C@H](Oc2ccc3c(c2)N(c2cncc(S(=O)(=O)N4CCOCC4)c2)CCO3)C1
2. CCC(=O)N1CC[C@H](Oc2ccc3c(c2)N(c2cnc4ccccc4c2)CCO3)C1
Q: Which shows the larger pIC50 value: 1 or 2 ? Bench note: the answer is the label of the chosen record.
Ans: 1
(1: 6.82, 2: 5.90)
